Attribution: patent US8987195B2

- Test system: HCV NS3/4A protease genotype 1b (Hepatitis C virus genotype 1b)
- Sequence (P26663 1027-1657): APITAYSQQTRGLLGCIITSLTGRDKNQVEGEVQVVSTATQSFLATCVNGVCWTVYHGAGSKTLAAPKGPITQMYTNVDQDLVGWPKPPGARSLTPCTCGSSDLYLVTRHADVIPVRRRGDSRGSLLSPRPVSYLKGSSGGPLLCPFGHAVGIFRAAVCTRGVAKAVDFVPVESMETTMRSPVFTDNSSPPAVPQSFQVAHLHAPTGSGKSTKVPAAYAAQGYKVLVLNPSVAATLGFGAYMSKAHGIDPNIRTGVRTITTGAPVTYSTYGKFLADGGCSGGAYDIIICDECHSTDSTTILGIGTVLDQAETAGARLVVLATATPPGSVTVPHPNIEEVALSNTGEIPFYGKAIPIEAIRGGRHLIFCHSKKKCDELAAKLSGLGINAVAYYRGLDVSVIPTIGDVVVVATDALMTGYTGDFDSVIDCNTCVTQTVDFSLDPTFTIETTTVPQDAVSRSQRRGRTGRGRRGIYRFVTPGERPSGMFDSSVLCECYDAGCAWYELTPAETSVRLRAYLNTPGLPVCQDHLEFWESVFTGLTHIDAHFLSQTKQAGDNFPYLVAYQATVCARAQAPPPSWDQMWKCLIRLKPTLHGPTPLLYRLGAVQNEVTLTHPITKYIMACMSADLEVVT
- Sequence (P26663 1658-1711): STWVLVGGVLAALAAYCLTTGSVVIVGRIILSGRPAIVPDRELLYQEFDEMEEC
- Assay text: HCV NS3/4A protease time-resolved fluorescence (TRF) assay, Ki against genotype 1b
- Assay type: biochemical
- Assay conditions: IC50 [gt-1b] (nM), NS3/4A genotype 1b, enzyme 0.2 nM
Attribute measured: log10(IC50) (log10 of the value in nM)
Reminder: these figures are log10 of reported IC50, in nM before transformation.

{"Query smiles": "Cc1cccc(N[C@H]2CCCCC/C=C\\[C@@H]3C[C@@]3(C(=O)NS(=O)(=O)C3(C)CC3)NC(=O)[C@@H]3C[C@]4(CCc5c(c(C)nc6ccccc56)O4)CN3C2=O)n1", "log10(IC50)": -1.30}
{"Query smiles": "Cc1nc2ccccc2c2c1O[C@]1(CC2)C[C@H]2C(=O)N[C@]3(C(=O)NS(=O)(=O)C4(C)CC4)C[C@H]3/C=C\\CCCCC[C@H](Nc3ccccn3)C(=O)N2C1", "log10(IC50)": -0.95}
{"Query smiles": "CC1(S(=O)(=O)NC(=O)[C@@]23C[C@H]2/C=C\\CCCCC[C@H](NC(=O)OC2CCCC2)C(=O)N2C[C@@]4(CCc5c(c(C6CC6)nc6ccc7c(c56)OCO7)O4)C[C@H]2C(=O)N3)CC1", "log10(IC50)": -1.92}
{"Query smiles": "Cc1nc2ccccc2c2c1O[C@]1(CC2)C[C@H]2C(=O)N[C@]3(C(=O)NS(=O)(=O)C4(C)CC4)C[C@H]3/C=C\\CCCCC[C@H](N(CCc3ccccc3)CCc3ccccc3)C(=O)N2C1", "log10(IC50)": 0.80}

Now look at this one.
Inquiry: Entry under review: Cc1nc2ccc(OCC(F)(F)F)cc2c2c1O[C@]1(CC2)C[C@H]2C(=O)N[C@]3(C(=O)NS(=O)(=O)C4(C)CC4)C[C@H]3/C=C\CCCCC[C@H](NC(=O)OC(C)(C)C)C(=O)N2C1 . Reported log10(IC50)?
Reply text: -2.05
